Every entry's value here was drawn from patent US20190038721A1.

- Assayed system: human GLP-1 receptor (human, UniProt P43220 24-463)
- Procedure text: cell-based or functional assay
Starred links: 1 amine or outer side, 2 acyl side, 3 side chain; linkers in the order of their positions; H or OH if unused. Non-standard residues stand in square brackets, D forms with d. Groups on a side chain read outwards from the residue. No end group written: not given here. *: point of attachment. Decanoyl(10-(4-HOOC-PhO)) = O=C(O)c1ccc(OCCCCCCCCCC(=O)*)cc1; C20 diacid = O=C(O)CCCCCCCCCCCCCCCCCCC(=O)*; γGlu = O=C(O)[C@H](CCC(=O)[*:2])N[*:1]; AEEA = NCCOCCOCC(=O)O; Aib = CC(C)(N)C(=O)O
Exercise: for every item that follows, state its recorded EC50 (pM), in vitro potency, CRE luciferase reporter gene assay in BHK cells.
One number for each entry, in pM.

// solved cases for EC50 (pM), in vitro potency, CRE luciferase reporter gene assay in BHK cells follow
H[Aib]EGTFTSDVSSYLEEQAAREFIAWLVRGRGKGGSK (also: the two extension Lys residues acylated as in the compound) [Comparative Example 9A (Example 3 of WO 2015/000942)]	41.3
HWEGTFTSDVSSYLEEQAAREFIAWLVRGRK([Lys-AEEA-AEEA-AEEA-AEEA-AEEA-AEEA-γGlu-4‑(aminomethyl)cyclohexanecarbonyl-C20 diacid)+(AEEA-AEEA-AEEA-AEEA-AEEA-AEEA-γGlu-4‑(aminomethyl)cyclohexanecarbonyl-C20 diacid]) (also called 10)	31.2

Batch: EC50 (pM), in vitro potency, CRE luciferase reporter gene assay in BHK cells for all items listed.
1. H[Aib]EGTFTSDVSSYLEEQAAREFIAWLVRGRPK (also: Lys32 acylated as, structure not given here) [Comparative Example 11A (Example 10 of WO 2016/083499)]
2. H[Aib]EGTFTSDVSSYLEEQAARKFIEWLVRGKGEG (not fully specified (residues 21, 30); also: Lys21 and Lys30 acylated as, structure not given here) [Comparative Example 3A (Example 31 of WO 2012/140117)]
3. HWEGTFTSDVSSYLEEQAARK([AEEA-AEEA-γGlu-Decanoyl(10-(4-HOOC-PhO))])FIEWLVRGK([AEEA-AEEA-γGlu-Decanoyl(10-(4-HOOC-PhO))])GEG

(A)
1. 12.5
2. 0.53
3. 2.7
